Where do the numbers come from? From PubChem BioAssay (Tox21).

Assay: qHTS assay to identify small molecule antagonists of the sonic hedgehog signaling (Shh) pathway - cell viability counter screen (AID 1259367); note: nearly all actives have a fitted effect of over 55% in size
Conditions: NIH/3T3 Gli1-Luc viability, CellTiter-Fluor, 24 h; series mostly up to 42.5 µM
Results filed as inconclusive are left out. Activity calls are given as the source filed them. Calls come from the whole dose curve; as a rule, active = well fitted cell-killing curve with a large enough effect in the repeat runs; inconclusive = weak or mixed curves, or effect the other way; inactive = no such curve, though single readings can be large or run the other way.
Outcome codes: 1 (yes) = active, 0 (no) = inactive

| Structure smiles string | Group label |
| --- | --- |
| CN(C)CCCOC1(Cc2ccccc2)CCCCCC1 | 0 (no) |
| Clc1ccccc1C(c1ccccc1)(c1ccccc1)n1ccnc1 | 1 (yes) |
| O=[N+]([O-])c1ccccc1Nc1ccccc1 | 0 (no) |
| ON=C1CCCC1 | 0 (no) |
| CCN1/C(=C/C=C/c2sc3ccccc3[n+]2CC)Sc2ccccc21 | 1 (yes) |
| C[C@H]1[C@H]2CC[C@H]3[C@@H]4CC=C5C[C@@H](N(C)C)CC[C@]5(C)[C@H]4CC[C@]23CN1C | 0 (no) |
| COc1cc(-c2ccc(N=C=O)c(OC)c2)ccc1N=C=O | 0 (no) |
| CCCCCCCCCCC=O | 0 (no) |
| CC(C)n1nc(-c2cc3cc(O)ccc3[nH]2)c2c(N)ncnc21 | 1 (yes) |
| O=S1(=O)CC(Cl)(Cl)C(Cl)(Cl)C1 | 1 (yes) |
| CCc1cc(Cc2cc(CC)c(N)c(CC)c2)cc(CC)c1N | 0 (no) |
| C/C=C1/C(=O)C[C@H]2[C@@H]3CCC4=CC(=O)CC[C@]4(C)[C@H]3CC[C@]12C | 0 (no) |

* * *

Experiment: qHTS assay to identify small molecule antagonists of the peroxisome proliferator-activated receptor delta (PPARd) signaling pathway - cell viability counter screen (AID 743213); note: nearly all actives have a fitted effect of over 50% in size
Details: PPARd-bla HEK293H viability, CellTiter-Glo luminescence, 17 h; series mostly up to 62 µM
Excerpt: U.S. Tox21 Program National Center for Advancing Translational Sciences [NCATS] NIH Chemical Genomics Center [NCGC] U.S. Environmental Protection Agency [EPA] National Institutes of Environmental Health Sciences [NIEHS] National Toxicology Program [NTP] U.S. Food and Drug Administration [FDA] […]
Inconclusive results are not listed. The source made the active and inactive calls. Calls come from the whole dose curve; as a rule, active = well fitted cell-killing curve with a large enough effect in the repeat runs; inconclusive = weak or mixed curves; inactive = no such curve, though single readings can be large or run the other way.
Possible outcomes: label 1 for active, label 0 for inactive

| Molecule | Group label |
| --- | --- |
| O=[N+]([O-])c1cc(Cl)c(Cl)c(Cl)c1Cl | label 0 |
| Oc1cccc2cc3cccc(O)c3c(O)c12 | label 0 |
| C/C(=C(/OCCOc1ccc(Cl)cc1)c1ccc(Cl)cc1Cl)n1ccnc1 | label 0 |
| CCOC(=O)O[C@]1(C(=O)OCCl)CC[C@H]2[C@@H]3CCC4=CC(=O)C=C[C@]4(C)[C@H]3[C@@H](O)C[C@@]21C | label 0 |
| Nc1ccc2c3c(cccc13)-c1ccccc1-2 | label 1 |
| CCOC(=O)/C=C(C)/C=C/C=C(C)/C=C/c1c(C)cc(OC)c(C)c1C | label 0 |
| CCCCCCCCCCCC[N+](C)(C)CCCCCCCCCCCC | label 1 |
| O=C(c1ccc(F)cc1)C1CCN(CCn2c(=O)[nH]c3ccccc3c2=O)CC1 | label 0 |
| O=C(O)c1c(Cl)cccc1Cl | label 0 |
| CCC(CN)=C(c1ccccc1)c1ccccc1 | label 1 |
| COC(=O)C1=C(C)NC(C)=C(C(=O)OCCc2ccc(N3CCN(C(c4ccccc4)c4ccccc4)CC3)cc2)C1c1cccc([N+](=O)[O-])c1 (stereo not drawn) | label 0 |
| Cc1ccc2oc(CN(Cc3ccccc3)C(=O)Nc3c(F)cc(F)cc3F)c(-c3ccc(Cl)cc3)c2c1 | label 0 |
| C=CC(=O)OCC(CO)(COCC(COC(=O)C=C)(COC(=O)C=C)COC(=O)C=C)COC(=O)C=C | label 1 |
| CCCCCCCCCCn1cc[n+](CCCCCCCCCC)c1C | label 1 |
| CSc1ccc(C(=O)c2[nH]c(=O)[nH]c2C)cc1 | label 0 |
| O=C1C=CC(=O)N1c1ccc(Cc2ccc(N3C(=O)C=CC3=O)cc2)cc1 | label 1 |
| O=c1[nH]sc2cc(Cl)ccc12 | label 1 |
| Cc1cccc(S(=O)(=O)O)c1C | label 0 |
| Oc1ccc(Cl)cc1Sc1cc(Cl)ccc1O | label 1 |
| Cc1cccc2c1cc1ccc3cccc4ccc2c1c34 | label 0 |
| Cc1ccc(O)c2ncccc12 | label 1 |
| Cc1cc2c(cc1C(F)(F)F)N(C(=O)Nc1ccc(Oc3cccnc3C)nc1)CC2 | label 1 |
| CN(C)C(=O)C1(N2CCCCC2)CCN(CC[C@@]2(c3ccc(Cl)c(Cl)c3)CN(C(=O)c3ccccc3)CCO2)CC1 | label 1 |
